- system tested: HIV-1 RT (Human immunodeficiency virus type 1, UniProt P04585, A649V/F664L/F703Y/Q738M/V662I)
- experimental protocol: Amp-RT assay, AZT-TP and other NRTI-TPs, reference viruses
assay readout: IC50 (µM)
Just the number please, in µM, no unit attached.

For reference, reported IC50 for Cc1cn([C@H]2C[C@H](N=[N+]=[N-])[C@@H](CO)O2)c(=O)[nH]c1=O [AZT, zidovudine] stands at 18

* * *

- system tested: HIV-1 RT (Human immunodeficiency virus type 1, UniProt P04585, S655G/V662I, form not given)
- condition description: read-out: IC50 Amp-RT assay; patient-derived virus 14 (L4), A62A/V, S68G, V75I, F77L, F116Y, Q151M
- Text: Four groups of archived HIV-1 specimens with known genotypes were selected for assay validation. […]
assay readout: IC50 (µM)
Just the number please, in µM, no unit attached.

For reference, reported IC50 for `Cc1cn([C@H]2C[C@H](N=[N+]=[N-])[C@@H](CO)O2)c(=O)[nH]c1=O` stands at 8.23
